ADFI (average daily feed intake) overview
# Test system: Duroc×Landrace×Yorkshire cross-bred bacon-type pigs
# Test Details: Breeding test B1: effect on the production performance of pigs
# Type: in vivo
# Applied Conditions: 400 ppm in basal daily ration, 28 days, 65-day-old pigs

1) NCCCC(=O)NCCCC(=O)O [N-(γ-aminobutyryl)-γ-aminobutyric acid] : 1831 g/d * each pig
2) O=C(O)CCCNC(=O)c1ccc(Cl)cc1 [N-p-chlorobenzoyl-γ-aminobutyric acid] : 1675 g/d * each pig
3) NCC(=O)NCCCC(=O)O [N-glycyl-γ-aminobutyric acid] : 1728 g/d * each pig
4) Cc1ccc(C(=O)NCCCC(=O)O)cc1 [N-p-methylbenzoyl-γ-aminobutyric acid] : 1769 g/d * each pig
5) Nc1ccc(C(=O)NCCCC(=O)O)cc1 [N-p-aminobenzoyl-γ-aminobutyric acid] : 1643 g/d * each pig
6) CC(=O)NCCCC(=O)O [N-acetyl-γ-aminobutyric acid] : 1827 g/d * each pig

Q. // ADFI (average daily feed intake) lookup, key: O=C(O)CCCNC(=O)c1ccccc1 [N-benzoyl-γ-aminobutyric acid]
A. 1837 g/d * each pig

Q. Follow-up entry: O=C(O)CCCNC(=O)c1ccc(O)cc1 [N-p-hydroxybenzoyl-γ-aminobutyric acid]
A. 1602 g/d * each pig
